target: UniProt P13945; experiment: Intrinsic activity at human cloned adrenergic beta3 receptor expressed in CHO cells assessed as cAMP accumulation relative to isoproterenol; type: functional, cell-based
Sequence (P13945 whole entry, looked up): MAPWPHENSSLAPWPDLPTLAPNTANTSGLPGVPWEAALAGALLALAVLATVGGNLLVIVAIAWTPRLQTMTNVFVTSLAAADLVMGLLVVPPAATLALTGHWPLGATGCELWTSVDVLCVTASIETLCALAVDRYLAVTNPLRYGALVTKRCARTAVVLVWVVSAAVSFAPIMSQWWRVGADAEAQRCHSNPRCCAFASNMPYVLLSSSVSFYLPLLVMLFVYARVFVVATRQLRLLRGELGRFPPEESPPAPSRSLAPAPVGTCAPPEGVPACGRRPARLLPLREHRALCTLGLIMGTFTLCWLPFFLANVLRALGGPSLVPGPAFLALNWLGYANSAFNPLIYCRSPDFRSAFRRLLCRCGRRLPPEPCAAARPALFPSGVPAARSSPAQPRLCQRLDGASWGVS
parameter: Intrinsic activity (%)
The reply should contain only the number, in %.

Field Intrinsic activity (entry `CS(=O)(=O)Nc1cc([C@@H](O)CN[C@H](Cc2ccccc2)c2ccc(OC(F)F)cc2)ccc1O` ) reads 107

Field Intrinsic activity (entry `COc1ccc(CC(Cc2ccc(OC)c(OC)c2)NC[C@@H](O)Cc2ccc(O)c(NS(C)(=O)=O)c2)cc1OC` ) reads 75

Field Intrinsic activity (entry `CS(=O)(=O)Nc1cc([C@@H](O)CN)ccc1O` ) reads 93

Field Intrinsic activity (entry `CS(=O)(=O)Nc1cc(C[C@H](O)CNC(c2ccc(OC(F)F)cc2)c2ccc(OC(F)F)cc2)ccc1O` ) reads 60

Field Intrinsic activity (entry `COc1ccc(C(C)(C)NC[C@H](O)c2ccc(O)c(NS(C)(=O)=O)c2F)cc1` ) reads 88

Field Intrinsic activity (entry `COc1ccc(CNC[C@H](O)COc2ccc(O)c(NS(C)(=O)=O)c2)cc1` ) reads 46

Field Intrinsic activity (entry `COc1ccc([C@@H](Cc2ccccc2)NC[C@H](O)COc2ccc(O)c(NS(C)(=O)=O)c2)cc1OC` ) reads 67

Field Intrinsic activity (entry `CS(=O)(=O)Nc1cc(OC[C@@H](O)CN)ccc1O` ) reads 47

Field Intrinsic activity (entry `COc1cccc([C@H](CCc2ccccc2)NC[C@H](O)Cc2ccc(O)c(NS(C)(=O)=O)c2)c1` ) reads 44

Field Intrinsic activity (entry `CS(=O)(=O)Nc1cc(C[C@H](O)CN[C@H](Cc2ccccc2)c2ccc(OC(F)F)c(OC(F)F)c2)ccc1O` ) reads 60

Field Intrinsic activity (entry `CS(=O)(=O)Nc1cc(OC[C@@H](O)CN[C@H](Cc2ccccc2)c2ccc(OC(F)F)cc2)ccc1O` ) reads 48

Field Intrinsic activity (entry COc1ccc([C@H](NC[C@H](O)c2ccc(O)c(NS(C)(=O)=O)c2)C(=O)Nc2ccccc2)cc1 (stereo in doubt; 1a) ) reads 119

Field Intrinsic activity (entry `COc1cccc([C@@H](Cc2ccccc2)NC[C@H](O)Cc2ccc(O)c(NS(C)(=O)=O)c2)c1` ) reads 27

Field Intrinsic activity (entry `CS(=O)(=O)Nc1c(O)ccc([C@@H](O)CN[C@H](Cc2ccccc2)c2ccc(OC(F)F)cc2)c1F` ) reads 77

Field Intrinsic activity (entry `CS(=O)(=O)Nc1cc(CC[C@@H](O)CN[C@H](Cc2ccccc2)c2ccc(OC(F)F)cc2)ccc1O` ) reads 40

Field Intrinsic activity (entry `COc1ccc([C@@H](Cc2ccccc2)NC[C@H](O)Cc2ccc(O)c(NS(C)(=O)=O)c2)cc1` ) reads 30
